System: U-2932
Experiment: growth inhibition by drug alone (1 - RLU/untreated control) (fraction); higher = stronger inhibition
Conditions: 1000 nM; time (day): 3; 177Lu-lilotomab satetraxetan 0 ug/ml
property_name: growth inhibition by drug alone
Answer with the value's number alone.

compound	target	numeric_value
CNCc1ccc(-c2[nH]c3cc(F)cc4c3c2CCNC4=O)cc1	U-2932	0.0442
CN1CCN(c2ccc3nc(-c4c(N)c5c(F)cccc5[nH]c4=O)[nH]c3c2)CC1 [Dovitinib (TKI-258)]	U-2932	0.0669
CC(=O)Nc1nc(C)c(-c2ccc(Cl)c(S(=O)(=O)NCCO)c2)s1	U-2932	0.302

Record summary for CNC(=O)c1cc(Oc2ccc(NC(=O)Nc3cc(C(C)(C)C)nn3-c3ccc4ncccc4c3)c(F)c2)ccn1 [DCC-2036 (Rebastinib)] : reported growth inhibition by drug alone = 0.0869
